Source of measurements: ChEMBL document CHEMBL3421585

Assay: Lipophilicity, log D of the compound at pH 7.4
Settings: buffer
Output: class label from logD. Mapping: low: < 2; mid: ≥ 2 and < 3; high: ≥ 3

>>> cat("CC(C)Cn1nc(C#N)c2cc(Oc3ccc(NC(=O)[C@@H]4CCCN4)cc3)ccc21")
"high"
>>> cat("CC(C)Cn1cc(C#N)c2cc(Sc3ccc(NC(=O)[C@@H]4CCCN4)cc3)ccc21")
"high"
>>> cat("CCn1cc(C#N)c2cc(Oc3ccc(NC(=O)CN)cc3)ccc21")
"mid"
>>> cat("N#Cc1c(N)[nH]c2ccc(Oc3ccc(NC(=O)[C@@H](N)CO)cc3)cc12")
"low"
>>> cat("CC(C)Cn1cc(C#N)c2cc(Oc3ccc(NC(=O)[C@@H]4CCCN4)cc3)ccc21")
"high"
>>> cat("N#Cc1cn(CC2CCOCC2)c2ccc(Oc3ccc(NC(=O)[C@@H]4CCCN4)cc3)cc12")
"mid"
>>> cat("N#Cc1cn(-c2ccccc2)c2ccc(Oc3ccc(NC(=O)[C@@H]4CCCN4)cc3)cc12")
"high"
>>> cat("Cn1cc(-c2cn(C)c3ccc(Oc4ccc(NC(=O)[C@@H]5CCCN5)cc4)cc23)cn1")
"low"
>>> cat("N#Cc1cn(Cc2ccccc2)c2ccc(Oc3ccc(NC(=O)[C@@H]4CCCN4)cc3)cc12")
"high"
>>> cat("N#Cc1c(N)n(Cc2ccccc2)c2ccc(Oc3ccc(NC(=O)CN)cc3)cc12")
"mid"

input: Which bin, given its logD, does "N#Cc1c(N)[nH]c2ccc(Oc3ccc(NC(=O)CN)cc3)cc12" occupy?
output: low

input: Would you kindly repeat that for "CCn1cc(C#N)c2cc(Oc3ccc(NC(=O)CNC)cc3)ccc21" ?
output: mid

input: Would you kindly repeat that for "N#Cc1c(N)[nH]c2ccc(Oc3ccc(NC(=O)[C@H](N)CO)cc3)cc12" ?
output: low

input: Would you kindly repeat that for "CNC(=O)Cn1cc(C#N)c2cc(Oc3ccc(NC(=O)[C@@H]4CCCN4)cc3)ccc21" ?
output: low

input: Would you kindly repeat that for "CC(=O)Nc1ccc(Oc2ccc3[nH]c(N)c(C#N)c3c2)cc1" ?
output: mid

input: Would you kindly repeat that for "CC(C)Cn1cc(C#N)c2cc(N(C)c3ccc(NC(=O)[C@@H]4CCCN4)cc3)ccc21" ?
output: high

input: Would you kindly repeat that for "N#Cc1c[nH]c2ccc(Oc3ccc(NC(=O)CN)cc3)cc12" ?
output: mid

input: Would you kindly repeat that for "CCn1cc(C#N)c2cc(Oc3ccc(N(C)C(=O)[C@@H]4CCCN4)cc3)ccc21" ?
output: low
